Biological target: Serine/threonine-protein phosphatase PP1-alpha catalytic subunit (Homo sapiens) (UniProt P62136)
Sequence (P62136 whole entry, looked up): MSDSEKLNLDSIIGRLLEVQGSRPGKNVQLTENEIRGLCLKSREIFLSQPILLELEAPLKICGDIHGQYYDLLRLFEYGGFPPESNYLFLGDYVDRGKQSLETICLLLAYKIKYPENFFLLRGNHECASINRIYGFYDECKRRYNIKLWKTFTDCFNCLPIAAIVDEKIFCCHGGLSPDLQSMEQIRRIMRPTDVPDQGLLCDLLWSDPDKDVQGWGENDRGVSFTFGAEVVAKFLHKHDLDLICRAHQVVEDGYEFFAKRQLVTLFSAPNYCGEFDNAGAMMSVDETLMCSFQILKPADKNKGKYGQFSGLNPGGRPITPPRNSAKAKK
Experiment: PP1 inhibitor potency with OMFP substrate, dose response, biochemical, fluorescence, set 2 (AID 652207)
Details: purified PP1alpha, OMFP dephosphorylation fluorescence
The source made the active and inactive calls.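 The calls were made as follows: active = IC50 below 10 µM for blocking the PP1 phosphatase acting on a fluorogenic substrate; inactive = IC50 of 10 µM or more.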
Valid outcomes are listed here; reply with one: active, inactive

Which outcome was entered for the compound CN1CCN(C(c2nccs2)c2cc(Cl)c3cccnc3c2O)CC1 (stereo unspecified) in this test?
active

In this assay, the call recorded for "CN1CCN(Cc2cc(Cl)c3cccnc3c2O)CC1" was what?
inactive

Kindly provide the recorded test outcome for the following compound: CN1CCN(C(c2cccs2)c2cc(Cl)c3cccnc3c2O)CC1 (stereo unspecified)
active

Please state the recorded outcome for this compound: CN1CCN(C(c2ccccn2)c2ccc3cccnc3c2O)CC1 (stereo unspecified)
active

Tell me the assay call for "Oc1c(Cc2ccccn2)ccc2cccnc12" please.
active

Record lookup: outcome of this test for Oc1c(C(c2ccccn2)N2CCOCC2)cc(Cl)c2cccnc12 (stereo unspecified) ?
active

Reference source: PubChem BioAssay AID652207
